Values from patent US8541588B2

Target: Nav1.7 (or SCN9A) channel; HEK cells stably transfected with hSCN9A (Homo sapiens)
Construct: expressed in transfected cells
Sequence (Q15858 whole entry): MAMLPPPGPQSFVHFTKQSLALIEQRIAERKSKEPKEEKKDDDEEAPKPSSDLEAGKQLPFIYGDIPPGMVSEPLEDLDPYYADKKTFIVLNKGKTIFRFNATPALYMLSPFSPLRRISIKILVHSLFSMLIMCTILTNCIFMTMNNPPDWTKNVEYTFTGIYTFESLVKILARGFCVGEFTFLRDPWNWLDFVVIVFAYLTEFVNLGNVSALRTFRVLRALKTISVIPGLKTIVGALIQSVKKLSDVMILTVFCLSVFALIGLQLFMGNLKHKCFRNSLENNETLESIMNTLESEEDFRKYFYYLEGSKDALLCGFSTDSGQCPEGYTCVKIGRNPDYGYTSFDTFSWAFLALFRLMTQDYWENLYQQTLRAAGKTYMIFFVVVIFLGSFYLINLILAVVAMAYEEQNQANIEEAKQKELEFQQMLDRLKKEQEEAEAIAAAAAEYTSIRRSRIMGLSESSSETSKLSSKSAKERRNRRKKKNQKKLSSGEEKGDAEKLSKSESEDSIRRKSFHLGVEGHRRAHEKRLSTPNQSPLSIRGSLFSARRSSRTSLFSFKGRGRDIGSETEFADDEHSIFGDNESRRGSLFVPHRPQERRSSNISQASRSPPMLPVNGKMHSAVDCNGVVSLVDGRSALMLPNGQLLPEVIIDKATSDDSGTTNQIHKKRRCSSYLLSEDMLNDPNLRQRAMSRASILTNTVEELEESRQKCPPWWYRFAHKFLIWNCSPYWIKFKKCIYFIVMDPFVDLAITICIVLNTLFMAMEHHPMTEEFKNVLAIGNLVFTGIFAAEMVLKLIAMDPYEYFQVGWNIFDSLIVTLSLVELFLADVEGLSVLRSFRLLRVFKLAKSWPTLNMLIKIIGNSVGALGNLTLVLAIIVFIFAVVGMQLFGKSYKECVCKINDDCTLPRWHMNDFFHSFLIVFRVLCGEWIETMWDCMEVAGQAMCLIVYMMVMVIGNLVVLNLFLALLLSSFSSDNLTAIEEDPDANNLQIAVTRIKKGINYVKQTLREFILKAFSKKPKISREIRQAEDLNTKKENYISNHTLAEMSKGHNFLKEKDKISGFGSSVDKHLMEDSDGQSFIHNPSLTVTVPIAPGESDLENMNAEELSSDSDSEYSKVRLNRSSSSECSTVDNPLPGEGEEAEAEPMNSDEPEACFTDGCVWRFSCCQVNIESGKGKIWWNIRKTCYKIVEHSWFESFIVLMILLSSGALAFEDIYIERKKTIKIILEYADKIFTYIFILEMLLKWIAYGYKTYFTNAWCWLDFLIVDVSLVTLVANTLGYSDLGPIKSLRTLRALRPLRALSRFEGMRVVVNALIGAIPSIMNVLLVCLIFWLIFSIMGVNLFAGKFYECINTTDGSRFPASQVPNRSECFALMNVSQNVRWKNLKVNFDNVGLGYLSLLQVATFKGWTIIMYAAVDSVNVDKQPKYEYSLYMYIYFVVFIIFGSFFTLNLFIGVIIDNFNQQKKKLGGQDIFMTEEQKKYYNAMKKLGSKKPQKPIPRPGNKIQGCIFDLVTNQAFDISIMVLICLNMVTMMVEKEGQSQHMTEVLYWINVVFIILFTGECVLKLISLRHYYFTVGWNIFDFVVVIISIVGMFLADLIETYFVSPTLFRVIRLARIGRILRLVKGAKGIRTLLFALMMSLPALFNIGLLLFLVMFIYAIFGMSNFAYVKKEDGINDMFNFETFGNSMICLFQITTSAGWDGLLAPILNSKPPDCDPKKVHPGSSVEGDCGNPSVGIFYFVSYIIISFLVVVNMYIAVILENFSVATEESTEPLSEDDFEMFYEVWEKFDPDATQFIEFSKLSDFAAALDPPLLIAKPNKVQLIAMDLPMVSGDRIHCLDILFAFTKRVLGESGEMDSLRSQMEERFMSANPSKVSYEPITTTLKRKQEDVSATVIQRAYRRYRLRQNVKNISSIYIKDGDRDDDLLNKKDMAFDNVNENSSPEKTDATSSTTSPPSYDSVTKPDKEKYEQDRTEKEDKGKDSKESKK
Experiment: Nav1.7 block, PatchXpress 7000 automated whole-cell voltage clamp, estimated IC50 (EIC50)
Format: cell-based
Details: estimated IC50; hSCN9A HEK cells, PatchXpress platform; Examples 283-814
parameterMeasured: IC50 (µM)
Answer format: numeric, µM implied, no suffix.

-- ask Enter measured IC50, system Nav1.7 (or SCN9A) channel; HEK cells stably transfected with hSCN9A (Homo sapiens), for the compound shown: CCn1cc(C(F)(F)F)nc1-c1ccc(Oc2ccc(S(=O)(=O)Nc3nccs3)cc2C#N)cc1 [Example 316]
-- reply 0.74

-- ask Answer with IC50 of Cc1ccnc(-c2ccc(Oc3ccc(S(=O)(=O)Nc4nccs4)cc3C#N)cc2)c1 [Example 450] measured for Nav1.7 (or SCN9A) channel; HEK cells stably transfected with hSCN9A (Homo sapiens).
-- reply 3.4

-- ask Fill: IC50 (Nav1.7 (or SCN9A) channel; HEK cells stably transfected with hSCN9A (Homo sapiens)) for this compound Nc1cc(-c2cc(C(F)(F)F)ccc2Oc2cc(F)c(S(=O)(=O)Nc3ncns3)cc2Cl)ccn1 [Example 557]
-- reply 0.0008

-- ask Report IC50 on Nav1.7 (or SCN9A) channel; HEK cells stably transfected with hSCN9A (Homo sapiens) for this entry: Cn1nccc1-c1cc(F)ccc1Oc1cc(F)c(S(=O)(=O)Nc2cscn2)cc1Br [Example 625]
-- reply 0.018

---

Target: Nav1.7 (or SCN9A) channel; HEK cells stably transfected with hSCN9A (Homo sapiens)
Construct: expressed in transfected cells
Test: Nav1.7 block, PatchXpress 7000 automated whole-cell voltage clamp, estimated IC50 (EIC50)
Assay type: cell-based
Conditions: PatchXpress platform; hSCN9A HEK cells held at V1/2 of inactivation; estimated IC50
parameterMeasured: IC50 (nM)
// note: answer is a bare numeric in nM

-- ask In one line, give reported IC50 of the entry Cn1nccc1-c1cc(F)cc(F)c1Oc1ccc(S(=O)(=O)Nc2ncns2)cc1C#N [Example 73] .
-- reply 23400

-- ask Entry N#Cc1cc(S(=O)(=O)Nc2nccs2)ccc1Oc1ccc(F)cc1-c1ccc(CCO)cc1 [Example 201] needs its IC50 filled in; supply it.
-- reply 420

-- ask Give the reported IC50 for this compound. N#Cc1cc(S(=O)(=O)Nc2ncns2)ccc1Oc1cc(C2CC2)nn1-c1cc(F)ccc1F [Example 87]
-- reply 1600

-- ask For Cc1ccnn1-c1cc(F)ccc1Oc1ccc(S(=O)(=O)Nc2nccs2)cc1C#N [Example 176] , write its IC50.
-- reply 8870

-- ask Output IC50 of Cn1nccc1-c1ccccc1Oc1ccc(S(=O)(=O)Nc2nccs2)cc1F [Example 3]
-- reply 100

-- ask Consider the compound N#Cc1cc(S(=O)(=O)Nc2ncns2)ccc1Oc1ccc(F)cc1-c1ccnn1CC(F)(F)F [Example 26] and give its recorded IC50.
-- reply 450

---

Molecular target: Nav1.7 (or SCN9A) channel; HEK cells stably transfected with hSCN9A (Homo sapiens)
Construct: expressed in transfected cells
Test: Nav1.7 block, PatchXpress 7000 automated whole-cell voltage clamp, estimated IC50 (EIC50)
Assay type: cell-based
Conditions: estimated IC50; hSCN9A HEK cells, PatchXpress platform; Examples 815-1040
parameterMeasured: IC50

-- ask Return the recorded IC50 value; entry: N#Cc1cc(S(=O)(=O)Nc2ncns2)ccc1Oc1ccc(Cl)cc1-c1ccsn1 [Example 905]
-- reply 190 nM

-- ask Supply reported IC50 belonging to this compound: N#Cc1cc(S(=O)(=O)Nc2nncs2)ccc1Oc1ccc(Cl)cc1-c1cc(N2CCOCC2)ncn1 [Example 876]
-- reply >1000 nM

-- ask Please report the measured IC50 for Nc1cc(-c2cc(Cl)ccc2Oc2cc(F)c(S(=O)(=O)Nc3cnccn3)cc2Cl)ccn1 [Example 918]
-- reply 140 nM

-- ask Report measured IC50; entry is Cc1cc(S(=O)(=O)Nc2nncs2)c(F)cc1Oc1ccc(OC(F)(F)F)cc1-c1ccnnc1 [Example 1037]
-- reply 12 nM

-- ask Answer with reported IC50 of Cc1nnc(NS(=O)(=O)c2ccc(Oc3ccc(Cl)cc3-c3ccnn3C)c(C#N)c2)s1 [Example 888]
-- reply 920 nM

-- ask Give me measured IC50, please, for this compound: CC(=O)N1CC(n2nccc2-c2cc(F)ccc2Oc2cc(F)c(S(=O)(=O)Nc3cscn3)cc2Cl)C1 [Example 989]
-- reply 950 nM

-- ask Identify measured IC50 associated with O=S(=O)(Nc1ncns1)c1cc(F)c(Oc2cc(F)c(Cl)cc2-c2ccnnc2)cc1F [Example 936]
-- reply 8 nM

-- ask Output IC50 of O=S(=O)(Nc1ncns1)c1ccc(Oc2ccc(OC(F)(F)F)cc2-c2ccnnc2)c(Cl)c1 [Example 900]
-- reply 2.8 nM
